Molecular target: acetylcholinesterase (acetyl cholinesterase)
Experiment: in vitro AChE inhibition assay
Assay type: biochemical, Electrophorus electricus
MEASURED_PROPERTY: IC50 (μg ml^-1) ± SEM (µg/mL)
Answers are plain numbers, in µg/mL.

O=C1C(=O)N(CCOc2ccc(Cl)cc2)c2ccc(Cl)cc21 [PI6]    0.91
O=C1C(=O)N(CCOc2ccc(F)cc2)c2ccc(Br)cc21 [PI12]    1.31
O=C1C(=O)N(CCOc2ccccc2)c2ccc(Br)cc21 [PI9]    0.91
O=C1C(=O)N(CCOc2ccccc2)c2ccccc21 [PI1, 1-(2-Phenoxyethyl)indoline-2,3-dione]    0.52
O=C1C(=O)N(CCOc2ccc(Cl)cc2)c2ccc(Br)cc21 [PI10]    0.98
O=C1C(=O)N(CCOc2ccc(Cl)cc2)c2ccccc21 [PI2]    0.72

Provide IC50 (μg ml^-1) ± SEM values for the following items, in order.
1. O=C1C(=O)N(CCOc2ccc(F)cc2)c2ccccc21 [PI4]
2. O=C1C(=O)N(CCOc2ccc(Br)cc2)c2ccc(Br)cc21 [PI11]

0.68
1.14

Where do the numbers come from? From paper PMC8979220.
